Where these numbers come from: PubChem BioAssay (NCI)

- Tested on: MDA-MB-231 breast
- experimental_protocol: NCI-60 one-dose screen, 48 h (100 = growth as untreated, 0 = no growth, -100 = all killed)
- test_context: 10 µM unless noted
About 83,000 compounds went through this panel and 20% of them were active in at least one assay; those are over-represented in the sample as a whole. Activity calls are given as the source filed them. The calls were made as follows: active = growth percent below 10; inactive = the rest.
measured_endpoint: growth

Use the examples below as a reference point.
| compound | experimental_system | measurement |
| --- | --- | --- |
| CCOc1cccc2c(NC(C)CCCN(CC)CC)c(C)cnc12 (stereo not drawn) | MDA-MB-231 breast | 78.7% (inactive) |
| C[n+]1c(-c2ccccc2)c2cc(N)ccc2c2ccccc21 | MDA-MB-231 breast | 70.8% (inactive) |
| CCOC(=O)c1nn(C2CCCCO2)c2ccc(NS(=O)(=O)c3ccc(C)cc3)cc12 (stereo not drawn) | MDA-MB-231 breast | 94.2% (inactive) |
| CCc1ccc(NC(=O)N[C@@H](Cc2cc(F)cc(F)c2)C(=O)N[C@@H]2C(=O)N3C[C@H](O)C[C@H]3C(=O)N3CCOC[C@H]3C(=O)N[C@@H](C)C(=O)N3C[C@H](C)C[C@H]3C(=O)O[C@H]2C)cc1 | MDA-MB-231 breast | 16.1% (inactive) |
| C=C(C)[C@@H]1CC[C@]2(C)[C@H](CC[C@@H]3[C@@H]([C@@](C)(O)CCC=C(C)C)CC[C@]32C)[C@@]1(C)CCC(=O)O | MDA-MB-231 breast | -39.5% [100 µM] (active) |

Tested system MDA-MB-231 breast; growth recorded for `O=[N+]([O-])c1cc([N+](=O)[O-])c(C(F)(F)F)cc1NN=C(c1ccc(O)cc1)c1ccc(O)cc1` was 83.2% (inactive)

Tested system MDA-MB-231 breast; growth recorded for `CCCC[C@@H](C=O)NC(=O)[C@H](CC(C)C)NC(=O)[C@H](CC(C)C)NC(=O)OCc1ccccc1` was -32.3% (active)

Tested system MDA-MB-231 breast; growth recorded for `Cn1c(=O)c(C#N)c(-c2ccco2)n2c(S(=O)(=O)Cc3ccccc3)nnc12` was 126% (inactive)
